Value source: ChEMBL document CHEMBL4041516

Readings of IC50 for the listed compounds
MEASUREMENT_TARGET: Voltage-gated inwardly rectifying potassium channel KCNH2 (Homo sapiens, UniProt Q12809)
Sequence (Q12809 whole entry): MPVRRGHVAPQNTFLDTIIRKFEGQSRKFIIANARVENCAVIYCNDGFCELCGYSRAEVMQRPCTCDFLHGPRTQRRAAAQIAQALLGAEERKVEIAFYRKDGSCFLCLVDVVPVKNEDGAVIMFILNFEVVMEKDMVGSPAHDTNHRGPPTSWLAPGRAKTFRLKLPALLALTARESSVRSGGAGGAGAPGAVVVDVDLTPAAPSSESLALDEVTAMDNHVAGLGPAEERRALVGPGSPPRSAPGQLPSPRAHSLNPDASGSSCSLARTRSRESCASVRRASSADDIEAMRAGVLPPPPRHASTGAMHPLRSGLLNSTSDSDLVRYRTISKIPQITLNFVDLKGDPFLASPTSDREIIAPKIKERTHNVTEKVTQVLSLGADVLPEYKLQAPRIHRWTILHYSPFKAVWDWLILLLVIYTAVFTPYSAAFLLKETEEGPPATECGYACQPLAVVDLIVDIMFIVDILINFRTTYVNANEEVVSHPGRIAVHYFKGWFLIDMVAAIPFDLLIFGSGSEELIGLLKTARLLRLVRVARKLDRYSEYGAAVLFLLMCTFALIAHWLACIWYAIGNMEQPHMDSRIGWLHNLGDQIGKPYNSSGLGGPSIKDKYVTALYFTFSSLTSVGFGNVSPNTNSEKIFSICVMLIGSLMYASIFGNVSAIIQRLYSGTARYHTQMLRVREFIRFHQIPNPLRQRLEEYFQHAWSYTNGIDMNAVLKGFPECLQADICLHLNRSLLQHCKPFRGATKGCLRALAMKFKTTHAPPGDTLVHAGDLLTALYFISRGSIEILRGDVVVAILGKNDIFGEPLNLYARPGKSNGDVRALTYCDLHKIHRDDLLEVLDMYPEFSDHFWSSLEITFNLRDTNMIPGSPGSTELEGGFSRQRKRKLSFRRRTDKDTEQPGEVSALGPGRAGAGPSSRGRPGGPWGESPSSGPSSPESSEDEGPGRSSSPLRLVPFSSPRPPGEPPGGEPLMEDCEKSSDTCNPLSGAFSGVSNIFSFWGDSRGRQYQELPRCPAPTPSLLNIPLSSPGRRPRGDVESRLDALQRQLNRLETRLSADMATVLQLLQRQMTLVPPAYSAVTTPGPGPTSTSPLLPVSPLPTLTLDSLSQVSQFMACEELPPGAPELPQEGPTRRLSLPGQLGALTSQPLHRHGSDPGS
MEASUREMENT_NOTES: Inhibition of human ERG
CONDITION: read-out: IC50

Past entries and their recorded results:
| STRUCTURE_NOTATION | READING |
| --- | --- |
| CC[C@H](Nc1nc(N)nc(N)c1C#N)c1nc2cccc(C#CCCCC(=O)N3CCCC3)c2c(=O)n1-c1ccccc1 | > 40 µM |
| N#Cc1c(N)ncnc1N1CCC[C@H]1c1nc2cccc(C#CCCCC(=O)N3CCOCC3)c2c(=O)n1-c1ccccc1 | 31.7 µM |

Please give the measured IC50 for this compound: "CC[C@H](Nc1nc(N)nc(N)c1C#N)c1nc2cccc(C#CCCCC(=O)N3CCOCC3)c2c(=O)n1-c1ccccc1" > 40 µM
